assay-notes: Protein binding
Type: in vitro ADME
assay-conditions: human, human serum components
Classify as follows. Reported fraction unbound greater than or equal to 0.08: fulfilled. Reported fraction unbound below: not fulfilled.

Query string: Please check the record CCCc1nc(C)c2c(=O)[nH]c(-c3cc(S(=O)(=O)N(C)[C@@H](C)C(=O)N(C)C)ccc3OCC)nn12 and state if its fraction unbound is at or above 0.08.
Result string: not fulfilled

Query string: Please check the record CCCc1nc(C)c2c(=O)[nH]c(-c3cc(S(=O)(=O)N(C)CC(=O)N4CCN(C)CC4)ccc3OCC)nn12 and state if its fraction unbound is at or above 0.08.
Result string: fulfilled

Query string: Please check the record CCCc1nc(C)c2c(=O)[nH]c(-c3cc(S(=O)(=O)N(C)CC(=O)N(C)CCOC)ccc3OCC)nn12 and state if its fraction unbound is at or above 0.08.
Result string: not fulfilled

Query string: Please check the record CCCc1nc(C)c2c(=O)[nH]c(-c3cc(S(=O)(=O)NC)ccc3OCC)nn12 and state if its fraction unbound is at or above 0.08.
Result string: not fulfilled

Query string: Please check the record CCCc1nc(C)c2c(=O)[nH]c(-c3cc(S(=O)(=O)N(C)CC(=O)N(C)C)ccc3OCC)nn12 and state if its fraction unbound is at or above 0.08.
Result string: fulfilled

Query string: Please check the record CCCc1nc(C)c2c(=O)[nH]c(-c3cc(S(=O)(=O)N(C)C(C)(C)C(=O)N(C)C)ccc3OCC)nn12 and state if its fraction unbound is at or above 0.08.
Result string: not fulfilled

Query string: Please check the record CCCc1nc(C)c2c(=O)[nH]c(-c3cc(S(=O)(=O)N(C)CC(=O)N(C)CC(=O)N(C)C)ccc3OCC)nn12 and state if its fraction unbound is at or above 0.08.
Result string: fulfilled

Query string: Please check the record CCCc1nc(C)c2c(=O)[nH]c(-c3cc(S(=O)(=O)N(C)[C@H](C)C(=O)N(C)C)ccc3OCC)nn12 and state if its fraction unbound is at or above 0.08.
Result string: not fulfilled

Query string: Please check the record CCCc1nc(C)c2c(=O)[nH]c(-c3cc(S(=O)(=O)N(C)CC(=O)N4CCOCC4)ccc3OCC)nn12 and state if its fraction unbound is at or above 0.08.
Result string: fulfilled

Query string: Please check the record CCCc1nc(C)c2c(=O)[nH]c(-c3cc(S(=O)(=O)N(C)CC(=O)N(C)CCN(C)C)ccc3OCC)nn12 and state if its fraction unbound is at or above 0.08.
Result string: fulfilled

Query string: Please check the record CCCc1nc(C)c2c(=O)[nH]c(-c3cc(S(=O)(=O)N(C)CC(=O)N(CC)CC)ccc3OCC)nn12 and state if its fraction unbound is at or above 0.08.
Result string: not fulfilled

---

assay-notes: Solubility
Assay type: physicochemical
assay-conditions: pH 7.4, aqueous buffer, pH 7.4; read-out: Solubility pH 7.4
measured-parameter: solubility (µg/mL)
// return numeric value only (unit: µg/mL, not printed)

Query string: Kindly indicate its recorded solubility. Item: CCCc1nc(C)c2c(=O)[nH]c(-c3cc(S(=O)(=O)NC(C)C(=O)N(C)C)ccc3OCC)nn12 (centres unmarked)
Result string: 78.4

Query string: Kindly indicate its recorded solubility. Item: CCCc1nc(C)c2c(=O)[nH]c(-c3cc(S(=O)(=O)N(C)[C@@H](C)C(=O)NC)ccc3OCC)nn12
Result string: 74.6

---

Hi there, I'd appreciate the recorded IC50 for every entry that follows.
assayed-target: PDE5 (Homo sapiens)
assay-notes: Phosphodiesterase inhibition IC50 (Table 1)
Type: biochemical
assay-conditions: PDE5 inhibitor scaffold Compound B
// return numeric value only (unit: nM, not printed)

Query string: Kindly indicate its recorded IC50. Item: CCCc1nc(C)c2c(=O)[nH]c(-c3cc(S(=O)(=O)NC(C)C(=O)N(C)C)ccc3OCC)nn12 (stereo not shown) [Compound 17]
Result string: 0.66

Query string: Kindly indicate its recorded IC50. Item: CCCc1nc(C)c2c(=O)[nH]c(-c3cc(S(=O)(=O)NC(C)C(=O)N(C)C)ccc3OCC)nn12 (stereo not shown) [Compound 18]
Result string: 0.36

Query string: Kindly indicate its recorded IC50. Item: CCCc1nc(C)c2c(=O)[nH]c(-c3cc(S(=O)(=O)N(C)CC(=O)N(C)CCOC)ccc3OCC)nn12 [Compound 11]
Result string: 0.15

Query string: Kindly indicate its recorded IC50. Item: CCCc1nc(C)c2c(=O)[nH]c(-c3cc(S(=O)(=O)NC)ccc3OCC)nn12 [Compound 20]
Result string: 0.24

---

Hi there, I'd appreciate the recorded Non-Spec Binding for every entry that follows.
assay-notes: Non-specific binding
Format: in vitro ADME
// return numeric value only (unit: %, not printed)

Query string: Kindly indicate its recorded Non-Spec Binding. Item: CCCc1nc(C)c2c(=O)[nH]c(-c3cc(S(=O)(=O)N(C)CC(=O)N(C)CCOC)ccc3OCC)nn12
Result string: 0

Query string: Kindly indicate its recorded Non-Spec Binding. Item: CCCc1nc(C)c2c(=O)[nH]c(-c3cc(S(=O)(=O)N(C)CC(=O)N(C)C)ccc3OCC)nn12
Result string: 11.07

Query string: Kindly indicate its recorded Non-Spec Binding. Item: CCCc1nc(C)c2c(=O)[nH]c(-c3cc(S(=O)(=O)N(C)CC(=O)N4CCOCC4)ccc3OCC)nn12
Result string: 7.3

Query string: Kindly indicate its recorded Non-Spec Binding. Item: CCCc1nc(C)c2c(=O)[nH]c(-c3cc(S(=O)(=O)NC)ccc3OCC)nn12
Result string: 16.23

---

assayed-target: PDE5 (Homo sapiens)
assay-notes: Phosphodiesterase inhibition PDE-5 human
Assay type: biochemical
measured-parameter: IC50 (pM)
// return numeric value only (unit: pM, not printed)

Query string: Kindly indicate its recorded IC50. Item: CCCc1nc(C)c2c(=O)[nH]c(-c3cc(S(=O)(=O)NC(C)C(=O)N(C)C)ccc3OCC)nn12 (stereo not shown) [Compound 17]
Result string: 660

Query string: Kindly indicate its recorded IC50. Item: CCCc1nc(C)c2c(=O)[nH]c(-c3cc(S(=O)(=O)NC)ccc3OCC)nn12
Result string: 243

Query string: Kindly indicate its recorded IC50. Item: CCCc1nc(C)c2c(=O)[nH]c(-c3cc(S(=O)(=O)N(C)CC(=O)N(C)CCOC)ccc3OCC)nn12
Result string: 150

Query string: Kindly indicate its recorded IC50. Item: CCCc1nc(C)c2c(=O)[nH]c(-c3cc(S(=O)(=O)NC(C)C(=O)N(C)C)ccc3OCC)nn12 (stereo not shown) [Compound 18]
Result string: 360

---

assay-notes: Solubility
Format: physicochemical
assay-conditions: pH 2.7, aqueous buffer, pH 2.7; read-out: Solubility pH 2.7
measured-parameter: solubility (µg/mL)
// return numeric value only (unit: µg/mL, not printed)

Query string: Kindly indicate its recorded solubility. Item: CCCc1nc(C)c2c(=O)[nH]c(-c3cc(S(=O)(=O)NC(C)C(=O)N(C)C)ccc3OCC)nn12 (stereo not shown)
Result string: 70

Query string: Kindly indicate its recorded solubility. Item: CCCc1nc(C)c2c(=O)[nH]c(-c3cc(S(=O)(=O)N4CCCC4C(=O)N(C)C)ccc3OCC)nn12 (stereo not shown)
Result string: 100

Query string: Kindly indicate its recorded solubility. Item: CCCc1nc(C)c2c(=O)[nH]c(-c3cc(S(=O)(=O)N(C)CC(=O)N(C)CC(=O)N(C)C)ccc3OCC)nn12
Result string: 112

---

assay-notes: Caco-2 permeability
Assay type: in vitro ADME
assay-conditions: human, AtoB
Source text: Several model systems are available, employing monolayers of various cell types, for evaluation of active transport of pharmaceutically active substances. For example, monolayers of Caco-2 intestinal epithelial cells can be used to evaluate active transport of substances between the intestine and the bloodstream. […]
Please map values of Papp A→B to classes as shown: band 1 (below 5 ×10⁻⁶ cm/s), band 2 (5 ×10⁻⁶ cm/s to below 20 ×10⁻⁶ cm/s), band 3 (20 ×10⁻⁶ cm/s or more)

Query string: Which Papp A→B category applies to CCCc1nc(C)c2c(=O)[nH]c(-c3cc(S(=O)(=O)N(C)CC(=O)N(C)CC(=O)N(C)C)ccc3OCC)nn12 [Compound 4] here?
Result string: band 1

Query string: Which Papp A→B category applies to CCCc1nc(C)c2c(=O)[nH]c(-c3cc(S(=O)(=O)N(C)CC(=O)N(C)C)ccc3OCC)nn12 [Compound 1] here?
Result string: band 2

Query string: Which Papp A→B category applies to CCCc1nc(C)c2c(=O)[nH]c(-c3cc(S(=O)(=O)N(C)C(C)(C)C(=O)NC)ccc3OCC)nn12 [Compound 15] here?
Result string: band 2

Query string: Which Papp A→B category applies to CCCc1nc(C)c2c(=O)[nH]c(-c3cc(S(=O)(=O)N(C)CC(=O)NC)ccc3OCC)nn12 [Compound 21] here?
Result string: band 2

Query string: Which Papp A→B category applies to CCCc1nc(C)c2c(=O)[nH]c(-c3cc(S(=O)(=O)N(C)CC(=O)N4CCOCC4)ccc3OCC)nn12 [Compound 6] here?
Result string: band 2

Query string: Which Papp A→B category applies to CCCc1nc(C)c2c(=O)[nH]c(-c3cc(S(=O)(=O)N(C)[C@@H](C)C(=O)N(C)C)ccc3OCC)nn12 [Compound 12] here?
Result string: band 3

Query string: Which Papp A→B category applies to CCCc1nc(C)c2c(=O)[nH]c(-c3cc(S(=O)(=O)N(C)[C@H](C)C(=O)N(C)C)ccc3OCC)nn12 [Compound 2] here?
Result string: band 3

Query string: Which Papp A→B category applies to CCCc1nc(C)c2c(=O)[nH]c(-c3cc(S(=O)(=O)N(C)CC(=O)N(C)CCN(C)C)ccc3OCC)nn12 [Compound 9] here?
Result string: band 1

Query string: Which Papp A→B category applies to CCCc1nc(C)c2c(=O)[nH]c(-c3cc(S(=O)(=O)N(C)C(C)(C)C(=O)N(C)C)ccc3OCC)nn12 [Compound 3] here?
Result string: band 3

Query string: Which Papp A→B category applies to CCCc1nc(C)c2c(=O)[nH]c(-c3cc(S(=O)(=O)N(C)CC(=O)N(C)CCOC)ccc3OCC)nn12 [Compound 11] here?
Result string: band 2

Query string: Which Papp A→B category applies to CCCc1nc(C)c2c(=O)[nH]c(-c3cc(S(=O)(=O)NC(C)(C)C(=O)N(C)C)ccc3OCC)nn12 [Compound 19] here?
Result string: band 1

Query string: Which Papp A→B category applies to CCCc1nc(C)c2c(=O)[nH]c(-c3cc(S(=O)(=O)N4CCCC4C(=O)N(C)C)ccc3OCC)nn12 (stereo not drawn) [Compound 5] here?
Result string: band 2

Query string: Which Papp A→B category applies to CCCc1nc(C)c2c(=O)[nH]c(-c3cc(S(=O)(=O)NC)ccc3OCC)nn12 [Compound 20] here?
Result string: band 3

Query string: Which Papp A→B category applies to CCCc1nc(C)c2c(=O)[nH]c(-c3cc(S(=O)(=O)N(C)CC(=O)N4CCN(C)CC4)ccc3OCC)nn12 [Compound 7] here?
Result string: band 1

Query string: Which Papp A→B category applies to CCCc1nc(C)c2c(=O)[nH]c(-c3cc(S(=O)(=O)N(C)CC(=O)N(CC)CC)ccc3OCC)nn12 [Compound 8] here?
Result string: band 3
